Just for reference, patent US20170129940A1 is where these values come from.

tgt: hCMV gH + gL + UL128 + UL130 + UL131A (co-expressed in HEK293T cells) (human cytomegalovirus), P12824
procedure details: competitor: 2C12-biotin; cell staining
reported conditions: remark: other sources report otherwise
Here, each record is paired with measured Inhibition of binding (%) data.
Write the answer as a number in %, unit excluded.

## Task Requested field: Inhibition of binding (%). Item: 8J16 (antibody, V domains shown) VH: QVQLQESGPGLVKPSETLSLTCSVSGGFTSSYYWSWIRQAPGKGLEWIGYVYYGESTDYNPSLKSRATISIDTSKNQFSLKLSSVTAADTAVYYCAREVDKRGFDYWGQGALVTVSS VL: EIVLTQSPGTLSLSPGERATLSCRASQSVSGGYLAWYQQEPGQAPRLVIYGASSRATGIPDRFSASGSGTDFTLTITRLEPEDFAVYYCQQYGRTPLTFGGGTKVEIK
## Result 100

## Task Which Inhibition of binding (%) is reported for this binder? 10F7 (antibody, V domains shown) VH: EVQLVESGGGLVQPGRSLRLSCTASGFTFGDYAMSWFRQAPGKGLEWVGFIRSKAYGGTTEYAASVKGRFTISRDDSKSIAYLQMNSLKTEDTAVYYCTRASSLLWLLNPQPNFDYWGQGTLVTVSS VL: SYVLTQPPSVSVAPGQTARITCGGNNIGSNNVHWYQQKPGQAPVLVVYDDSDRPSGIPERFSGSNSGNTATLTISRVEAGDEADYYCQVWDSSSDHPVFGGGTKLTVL
## Result 0

## Task Record request: Inhibition of binding (%) value, item 2C12 (antibody, V domains shown) VH: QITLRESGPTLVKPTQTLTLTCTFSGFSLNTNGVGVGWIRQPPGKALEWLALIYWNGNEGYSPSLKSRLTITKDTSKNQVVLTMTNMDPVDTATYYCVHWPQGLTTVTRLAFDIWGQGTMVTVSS VL: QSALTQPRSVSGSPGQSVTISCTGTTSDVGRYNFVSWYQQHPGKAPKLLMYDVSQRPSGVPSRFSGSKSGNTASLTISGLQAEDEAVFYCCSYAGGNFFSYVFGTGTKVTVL
## Result 100

## Task Please give the measured Inhibition of binding (%) for this binder: 4I22 (antibody, V domains shown) VH: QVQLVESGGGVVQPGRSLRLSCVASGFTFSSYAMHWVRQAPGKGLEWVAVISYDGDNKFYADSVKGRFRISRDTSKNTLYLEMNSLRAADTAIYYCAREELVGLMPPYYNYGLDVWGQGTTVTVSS VL: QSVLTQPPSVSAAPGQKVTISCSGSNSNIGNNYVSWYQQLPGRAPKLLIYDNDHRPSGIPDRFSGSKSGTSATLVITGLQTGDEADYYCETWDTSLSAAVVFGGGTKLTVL
## Result 0

## Task Please report the recorded Inhibition of binding (%) for 8C15 (antibody, V domains shown) VH: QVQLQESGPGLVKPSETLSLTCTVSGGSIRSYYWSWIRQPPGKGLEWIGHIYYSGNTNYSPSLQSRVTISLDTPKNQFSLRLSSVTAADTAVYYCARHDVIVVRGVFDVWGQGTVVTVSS VL: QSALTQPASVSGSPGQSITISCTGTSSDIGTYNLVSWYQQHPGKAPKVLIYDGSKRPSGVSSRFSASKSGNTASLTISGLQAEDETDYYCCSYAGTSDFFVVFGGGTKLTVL .
## Result 100
